Cited source for all entries: ChEMBL document CHEMBL1201862

System: 786-0
Test: NCI tumour cell line growth inhibition, 48 h
Calls of active or inactive are those of the source. Cut-off read from the data, not from the text of the source: active = GI50 up to about 1.1 µM and inactive = higher.
API: response.call in T = active, F = inactive

Give the logged outcome of this assay for the following compound: Cc1cc(N(CCOS(C)(=O)=O)CCOS(C)(=O)=O)ccc1/C=N/c1ccc(-c2csc(-c3ccc(Br)cc3)n2)cc1
F

Fill in: this test's call for O=C1/C(=C/c2ccc(Br)cc2)CCC/C1=C\c1ccc(Br)cc1 is ___
F

For Cn1c(=O)c2nc3nnc(C#N)c(N)n3c2n(C)c1=O , what call appears in the results of this test?
F

Hello, I am checking results. What call was entered for CC(=O)Nc1ccc2c(c1)C(=O)c1ccccc1-2 ?
F

Just curious, what result did COC(=O)c1cc2c(nc1C)-c1ccccc1OS2(=O)=O get here?
F

Could you kindly confirm the outcome this assay logged for C/C(Nc1ccc(Cl)cc1)=C1/CCOC1=O ?
F

State the result this test recorded for COC1(OC)CCCCCCCCC(OC)(OC)CCCCCCCC1 .
F

Called result for Cc1cc(Cc2cc(C)c(NC(=O)C(=O)C3CCC4=C(SC5C=CC=CC5N4)C3=O)c(C(C)C)c2)cc(C(C)C)c1NC(=O)C(=O)C1CCC2=C(SC3C=CC=CC3N2)C1=O (stereo unspecified)
F

How was O=[N+]([O-])c1ccc(-c2csc3nc(-c4ccccc4)nn23)cc1 classified in this test?
F

Assay result, entry COC(=O)c1ccc(NC(=O)c2cc3c(cc2Br)OCO3)o1 — outcome?
F

Recorded test outcome, item O=C1OC(c2ccc([N+](=O)[O-])cc2)=N/C1=C\c1ccc(O)cc1
F

Give the logged outcome of this assay for the following compound: CC(=O)O[C@H]1C#C/C=C\C#CC[C@@H]2C(=O)N[C@@H]12
F

Outcome logged for O=C1CN(/N=C/c2ccc(-c3ccc(F)cc3)o2)C(=O)N1 in this assay:
F

# fetch the recorded call for CC1=C(C(=O)Nc2ccccc2C)C(c2ccc(C3C(C(=O)Nc4ccccc4C)=CNC=C3C(=O)Nc3ccccc3C)cc2)C(C(=O)Nc2ccccc2C)=C(C)N1 here
F

Which outcome did this test record for the compound COC1CC(C)C(OC)C2=CC(=O)C=C(NC(=O)/C(C)=C/C=C\C(C)C(OC(N)=O)/C(C)=C\C(C)C1OC)C2=O (stereo unspecified) ?
T

Hey, what did the test say about Nc1nncs1 ?
F

Give the logged outcome of this assay for the following compound: CCCCOc1c(C(=O)O)cc(Br)cc1C(=O)O
F

Status in this test for Cc1c(/C=N/NC(=O)c2ccc(Cl)cc2)c(=O)n(-c2ccccc2)n1C ?
F

Assay outcome for CCOC(=O)C(=O)Nc1ccc(C)c(C)c1 : what was it?
F

How was CCCOC(=O)NC(C)C(=O)NC(CCC(=O)NC(CCCC(N)C(=O)O)C(=O)NC(C)C(=O)O)C(=O)O (stereo unspecified) classified in this test?
F

State the result this test recorded for OC(c1cc2ccccc2[nH]1)C(O)(c1cc2ccccc2[nH]1)c1cc2ccccc2[nH]1 (stereo unspecified) .
F

So what was the verdict on N=c1c2ccccc2nc2oc3ccccc3n12 in this test?
F

Tell me the recorded outcome of this test for O=C1NC(=O)[C@H]2C3C=CC([C@@H]12)[C@@H]1C(=O)NC(=O)[C@H]31 .
F

Please indicate how the test categorized O=C1Cc2ccccc2CCc2ccsc21 .
F

Recorded call for COC1CC(N)C(O)C(C)O1 (stereo unspecified) ?
F

Could you check what this test reported for CN(C)CCOC1(CC2CCCCC2)CCC(C(C)(C)C)CC1 (stereo unspecified) ?
F

Look up the recorded call for N#CC(C#N)=Cc1ccc(C=C2SC3=C(SCCS3)S2)s1 in this test.
F

Hey, what did the test say about O=C(Nc1ccc(Nc2ccc(NC(=O)c3ccccc3)c3c2C(=O)c2ccccc2C3=O)c2c1C(=O)c1ccccc1C2=O)c1ccccc1 ?
F

Recorded test call requested for Cc1ccc(S(=O)(=O)NC(=O)Nc2cccc(S(N)(=O)=O)c2)cc1
F

Give the logged outcome of this assay for the following compound: CC(=O)Nc1ccc(NNc2cc(=O)n(C)c(=O)[nH]2)cc1
F

Can you look up the reported call for N=C(N)SCc1cn2ccccc2n1 for me?
F

Identify the outcome logged in this assay for the compound shown: O=[N+]([O-])c1c(/C=N/c2ccccc2)oc(-c2ccc3c(c2)OCO3)c1-c1ccc2c(c1)OCO2
F

Which outcome did this test record for the compound C=CCN1C(=O)/C(=C/c2ccc(C)cc2)N=C1SC1OC(COC(C)=O)C(OC(C)=O)C(OC(C)=O)C1OC(C)=O (stereo unspecified) ?
F

Write down the call the test reported for this compound. Item: Cn1cccc(C(=O)c2ccccc2)c1=O
F

Can you look up the reported call for Fc1nc(Sc2ncnc3nc[nH]c23)nc(-c2c3ccccc3c3sc4ccccc4n23)n1 for me?
F

Which outcome did this test record for the compound COC(=O)c1ccc(O)c2nc3c(C=O)c(O)cc(O)c3nc12 ?
F

// outcome(item) with item = O=P(O)(O)C(N=C(Nc1ccccc1)Nc1ccccc1)P(=O)(O)O
F

Outcome? O=C(Nc1ccc(Cl)cc1)NS(=O)(=O)c1ccc2c(c1)CCC2
F

Recorded test call requested for Cc1ccc(Nc2nc3ccccc3c(=O)n2N)cc1
F

Hello, I am checking results. What call was entered for OCC1C(O)C(O)[C@@H]2SCCN12 (stereo partly specified) ?
F

Hi, do you know how C=C(C)[C@H](O)C(O)CC(C)[C@@H]1CCC23CC12CCC1[C@@]2(C)CCC(OC(C)=O)C(C)(C)C2CC(OC2OC(COC(C)=O)C(O)C(O)C2O)[C@]13C (stereo partly specified) came out in this test?
F
